# tested.system: T1, hu-IL-36γ (human IL-36γ, N-terminally truncated active form S18-D169) (human, UniProt Q9NZH8 18-169); further: test concentration or dose not given here
# T1 sequence: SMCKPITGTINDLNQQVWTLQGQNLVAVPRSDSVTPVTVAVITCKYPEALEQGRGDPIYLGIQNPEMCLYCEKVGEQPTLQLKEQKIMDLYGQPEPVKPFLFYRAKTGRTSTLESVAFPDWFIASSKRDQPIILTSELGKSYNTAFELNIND
# experimental.protocol: cell-based or functional assay
readout: % Inhibition, HEK-Blue IL-36R SEAP reporter assay (%)
Your answer should be a plain number; it is taken to be in %.

Q) Please give the measured % Inhibition, HEK-Blue IL-36R SEAP reporter assay for this binder: mAb2.0 Fab (yeast clone culture supernatant) (Fab, V domains shown, Human Fab secreted by the yeast clone, not purified) VH: QLQLQESGPGLVKPSETLSLTCTVSGGSISTSSYYWGWIRQPPGKGLEWIGSIYYTGNTYYNPSLKSRVTISVDTSKNQFSLKLSSVTAADTAVYYCARVRYGVGVPRYFDPWGQGTLVTVSS VL: QSVLTQPPSVSGAPGQRVTISCTGSSSNIGAHYDVHWYQQLPGTAPKLLIYGNDNRPSGVPDRFSGSKSGTSASLAITGLQAEDEADYYCQSYDYSLSGYVFGGGTKLTVL
A) 89
